biological target: human α2δ-1 subunit of Cav2.2 calcium channel (Homo sapiens); assay: Binding assay to human α2δ-1 subunit of Cav2.2 calcium channel ([3H]-Gabapentin); conditions: Table 1, human α2δ-1 enriched membranes, read-out: Ki(nM) alpha2delta Hum
Sequence (P54289 25-1103): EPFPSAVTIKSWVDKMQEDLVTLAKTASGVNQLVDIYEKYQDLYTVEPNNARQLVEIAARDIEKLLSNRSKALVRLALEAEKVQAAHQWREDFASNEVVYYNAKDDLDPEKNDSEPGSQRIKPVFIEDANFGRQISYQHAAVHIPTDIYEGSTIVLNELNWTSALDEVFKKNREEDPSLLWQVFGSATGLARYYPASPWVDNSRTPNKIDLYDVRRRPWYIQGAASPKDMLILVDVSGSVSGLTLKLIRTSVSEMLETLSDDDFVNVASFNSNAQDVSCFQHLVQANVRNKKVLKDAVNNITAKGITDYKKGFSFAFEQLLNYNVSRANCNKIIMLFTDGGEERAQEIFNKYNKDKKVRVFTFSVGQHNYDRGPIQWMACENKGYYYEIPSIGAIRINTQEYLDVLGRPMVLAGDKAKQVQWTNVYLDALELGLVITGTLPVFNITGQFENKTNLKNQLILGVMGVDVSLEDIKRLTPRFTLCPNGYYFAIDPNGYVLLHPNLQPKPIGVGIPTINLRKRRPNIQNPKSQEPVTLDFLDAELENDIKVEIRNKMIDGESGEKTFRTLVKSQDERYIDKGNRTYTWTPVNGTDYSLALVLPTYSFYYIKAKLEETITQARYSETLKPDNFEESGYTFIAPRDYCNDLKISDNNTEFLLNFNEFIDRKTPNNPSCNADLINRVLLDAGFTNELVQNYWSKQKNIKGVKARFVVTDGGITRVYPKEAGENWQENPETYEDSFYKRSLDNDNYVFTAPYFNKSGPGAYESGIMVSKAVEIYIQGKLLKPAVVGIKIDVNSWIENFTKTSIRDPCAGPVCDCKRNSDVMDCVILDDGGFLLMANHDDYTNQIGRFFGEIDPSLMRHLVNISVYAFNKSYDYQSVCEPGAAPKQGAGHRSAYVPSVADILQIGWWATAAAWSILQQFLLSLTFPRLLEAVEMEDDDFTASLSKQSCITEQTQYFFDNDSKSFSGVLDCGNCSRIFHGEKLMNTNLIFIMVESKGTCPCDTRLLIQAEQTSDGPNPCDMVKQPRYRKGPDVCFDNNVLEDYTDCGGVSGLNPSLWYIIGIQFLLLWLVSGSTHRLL
property_name: Ki

[[record]]
molecule = "CCNCCC(Oc1cccc2cnncc12)c1cccs1 (stereo not drawn)"
assayed_target = "human α2δ-1 subunit of Cav2.2 calcium channel (Homo sapiens)"
experimental_value = "100 to 500 nM"

[[record]]
molecule = "CNCCC(Oc1cccc2c1CCCN2C)c1cccs1 (stereo not drawn)"
assayed_target = "human α2δ-1 subunit of Cav2.2 calcium channel (Homo sapiens)"
experimental_value = "100 to 500 nM"

[[record]]
molecule = "CNCC[C@H](Oc1cccc2ncncc12)c1cccs1"
assayed_target = "human α2δ-1 subunit of Cav2.2 calcium channel (Homo sapiens)"
experimental_value = "100 to 500 nM"

[[record]]
molecule = "CCNCC[C@H](Oc1cccc2ncncc12)c1cccs1"
assayed_target = "human α2δ-1 subunit of Cav2.2 calcium channel (Homo sapiens)"
experimental_value = "500 to 3000 nM"

[[record]]
molecule = "CCNCC[C@H](Oc1cccc2c(=O)n(C)cnc12)c1cccs1"
assayed_target = "human α2δ-1 subunit of Cav2.2 calcium channel (Homo sapiens)"
experimental_value = "≥ 3000 nM"

[[record]]
molecule = "CCNCC[C@@H](Oc1cccc2ncncc12)c1ccsc1"
assayed_target = "human α2δ-1 subunit of Cav2.2 calcium channel (Homo sapiens)"
experimental_value = "< 100 nM"

[[record]]
molecule = "CNCC[C@@H](Oc1cccc2c1ccc(=O)n2C)c1cccs1"
assayed_target = "human α2δ-1 subunit of Cav2.2 calcium channel (Homo sapiens)"
experimental_value = "100 to 500 nM"

[[record]]
molecule = "CNCCC(OCc1cccc2ncccc12)c1cccs1 (stereo not drawn)"
assayed_target = "human α2δ-1 subunit of Cav2.2 calcium channel (Homo sapiens)"
experimental_value = "≥ 3000 nM"

[[record]]
molecule = "CNCCC(OCc1cccc2cnccc12)c1cccs1 (stereo not drawn)"
assayed_target = "human α2δ-1 subunit of Cav2.2 calcium channel (Homo sapiens)"
experimental_value = "≥ 3000 nM"

[[record]]
molecule = "CNCC[C@@H](Oc1cccc2c1CCN(C)C2)c1cccs1"
assayed_target = "human α2δ-1 subunit of Cav2.2 calcium channel (Homo sapiens)"
experimental_value = "< 100 nM"

[[record]]
molecule = "CNCC[C@H](Oc1cccc2cnncc12)c1cccs1"
assayed_target = "human α2δ-1 subunit of Cav2.2 calcium channel (Homo sapiens)"
experimental_value = "≥ 3000 nM"

[[record]]
molecule = "CCNCC[C@H](Oc1cccc2c(=O)n(C)ccc12)c1cccs1"
assayed_target = "human α2δ-1 subunit of Cav2.2 calcium channel (Homo sapiens)"
experimental_value = "500 to 3000 nM"

[[record]]
molecule = "CCNCC[C@@H](Oc1cccc2ncn(C)c(=O)c12)c1cccs1"
assayed_target = "human α2δ-1 subunit of Cav2.2 calcium channel (Homo sapiens)"
experimental_value = "< 100 nM"

[[record]]
molecule = "CCNCC[C@@H](Oc1cccc2c(=O)n(C)ccc12)c1ccsc1"
assayed_target = "human α2δ-1 subunit of Cav2.2 calcium channel (Homo sapiens)"
experimental_value = "< 100 nM"

[[record]]
molecule = "CNCC[C@@H](Oc1cccc2cnncc12)c1cccs1"
assayed_target = "human α2δ-1 subunit of Cav2.2 calcium channel (Homo sapiens)"
experimental_value = "100 to 500 nM"


From: patent US20190345146A1
